src = the supplement of paper PMC8975748

# System: Saccharomyces cerevisiae BY4741 SeMeCo community
# Measurement notes: mean cell size (pixel area) (pixels); higher = larger cells
# Condition parameters: 10 µM; 24 h; SM minimal medium
Where a name gives a salt, the structure may show the parent alone.
Observed property: mean cell size
Lab note: write the figure by itself, no unit.

// solved cases for mean cell size follow
- Compound: "N[C@@H](CCC(=O)O)C(=O)O [(S)-Glutamic acid]"
  Assay value: 12.1
- Compound: "Nc1ccc(S(=O)(=O)Nc2ccccn2)cc1"
  Assay value: 12.2
- Compound: "Cc1onc(-c2ccccc2)c1-c1ccc(S(N)(=O)=O)cc1"
  Assay value: 12.3
- Compound: "CC[C@H]1OC(=O)C[C@@H](O)[C@H](C)[C@@H](O[C@@H]2O[C@H](C)[C@@H](O[C@H]3C[C@@](C)(O)[C@@H](O)[C@H](C)O3)[C@H](N(C)C)[C@H]2O)[C@@H](CC=O)C[C@@H](C)C(=O)/C=C/C(C)=C/[C@@H]1CO[C@@H]1O[C@H](C)[C@@H](O)[C@@H](OC)[C@H]1OC [Tylosin tartrate]"
  Assay value: 12.4
- Compound: "O=C(O)c1cn(C2CC2)c2cc(N3CCNCC3)c(F)cc2c1=O [Ciprofloxacin hydrochloride hydrate]"
  Assay value: 12.4

Provide measured mean cell size value, entry: COc1cc(C(C)=O)ccc1OCCCN1CCC(c2noc3cc(F)ccc23)CC1
12.4

In one line, give reported mean cell size of the entry COc1cccc2c1C(=O)c1c(O)c3c(c(O)c1C2=O)CC(O)(C(=O)CO)CC3OC1CC(N)C(O)C(C)O1 (configuration not stated) [Doxorubicin (Adriamycin) HCl] .
13.7

Hello, please tell me recorded mean cell size for this one: O=C1CN2Cc3c(ccc(Cl)c3Cl)N=C2N1 [Anagrelide HCl]
12.3

Give the reported value of mean cell size for this record: O=C1CN(/N=C/c2ccc(-c3ccc([N+](=O)[O-])cc3)o2)C(=O)N1 [Dantrolene sodium]
12.4

----------
# Test system: Saccharomyces cerevisiae BY4741 SeMeCo community
# Measurement notes: z-score of subpopulation abundance vs DMSO median, subpopulation auxotrophic for HU; higher = larger share of this subpopulation than in DMSO controls
# Condition parameters: 10 µM; 24 h; SM minimal medium; subpopulation (auxotrophy): HU
Structures can show the parent of a compound that is named as a salt.
Observed property: z-score of subpopulation abundance
Returns: the value as a bare number; no unit string appended.

- Molecule: "Cn1c(=O)c2[nH]cnc2n(C)c1=O [Aminophylline]"
  z-score of subpopulation abundance: -0.5
- Molecule: "Cc1cc(NS(=O)(=O)c2ccc(N)cc2)nc(C)n1 [sulfaisodimidine]"
  z-score of subpopulation abundance: 0.09
- Molecule: "CCCCCCCCCCCCCCCC[N+](C)(C)C [Cetrimonium Bromide (CTAB)]"
  z-score of subpopulation abundance: 12.8
- Molecule: "CCCCOc1cc(C(=O)OCCN(CC)CC)ccc1N [Oxybuprocaine HCl]"
  z-score of subpopulation abundance: 0.6
- Molecule: "COc1ccc2c(c1)c(CC(=O)OCC(=O)O)c(C)n2C(=O)c1ccc(Cl)cc1 [Acemetacin]"
  z-score of subpopulation abundance: 0.77

Identify measured z-score of subpopulation abundance associated with NC(=O)Cc1cccc(C(=O)c2ccccc2)c1N [Nepafenac]
-1.05

Quickly give me recorded z-score of subpopulation abundance for CC(C)Cc1ccc(C(C)C(=O)O)cc1 (stereo unspecified) [Ibuprofen Lysine]
-2.64

Specify measured z-score of subpopulation abundance for COc1ccc2cc3[n+](cc2c1OC)CCc1cc2c(cc1-3)OCO2 [Berberine chloride] .
-0.79

Give the measured z-score of subpopulation abundance for CN1CCN(C2=Nc3cc(Cl)ccc3Nc3ccccc32)CC1 [Clozapine]
-0.45

Specify reported z-score of subpopulation abundance for the molecule shown: O=C1OCCN1/N=C/c1ccc([N+](=O)[O-])o1 [Furazolidone]
-5.84

Indicate its recorded z-score of subpopulation abundance; the molecule in question is C=C[C@]1(C)C[C@@H](OC(=O)CSC(C)(C)CNC(=O)[C@H](N)C(C)C)[C@]2(C)[C@H](C)CC[C@]3(CCC(=O)[C@H]32)[C@@H](C)[C@@H]1O [Valnemulin HCl]
1.22

Give the value of z-score of subpopulation abundance reported for the following: Nc1c2c(nc3ccccc13)CCCC2 [Tacrine hydrochloride hydrate]
-0.42

For the molecule O=c1[nH]cc(F)c(=O)[nH]1 [Fluorouracil (5-Fluoracil, 5-FU)] , report z-score of subpopulation abundance.
8.79

Supply reported z-score of subpopulation abundance belonging to this molecule: NCC[C@H](O)C(=O)N[C@@H]1C[C@H](N)[C@@H](O[C@H]2O[C@H](CN)[C@@H](O)[C@H](O)[C@H]2O)[C@H](O)[C@H]1O[C@H]1O[C@H](CO)[C@@H](O)[C@H](N)[C@H]1O [Amikacin disulfate]
-0.01

Give the reported z-score of subpopulation abundance for this molecule. CC1(C)S[C@@H]2[C@H](NC(=O)[C@H](N)c3ccc(O)cc3)C(=O)N2[C@H]1C(=O)O [Amoxicillin]
0.65

Write down z-score of subpopulation abundance measured for item Cc1cc(O)cc(C)c1Cl [Chloroxylenol]
1.05

Recall and state the measured z-score of subpopulation abundance for CCCc1cc(C(N)=S)ccn1 [Protionamide] .
-0.73

Using the record for Nc1ccc(S(=O)(=O)Nc2ncccn2)cc1 [Sulfadiazine] , state its measured z-score of subpopulation abundance.
-0.2

Name the recorded z-score of subpopulation abundance of the molecule listed here: O=C(O)c1cc(=O)c2c(OCC(O)COc3cccc4oc(C(=O)O)cc(=O)c34)cccc2o1 [Disodium Cromoglycate]
0.68
